Reported EC50 by item:
- SYSTEM_NAME: human κ-opioid receptor (OPRK1) (Homo sapiens, UniProt P41145)
- Sequence (P41145 whole entry): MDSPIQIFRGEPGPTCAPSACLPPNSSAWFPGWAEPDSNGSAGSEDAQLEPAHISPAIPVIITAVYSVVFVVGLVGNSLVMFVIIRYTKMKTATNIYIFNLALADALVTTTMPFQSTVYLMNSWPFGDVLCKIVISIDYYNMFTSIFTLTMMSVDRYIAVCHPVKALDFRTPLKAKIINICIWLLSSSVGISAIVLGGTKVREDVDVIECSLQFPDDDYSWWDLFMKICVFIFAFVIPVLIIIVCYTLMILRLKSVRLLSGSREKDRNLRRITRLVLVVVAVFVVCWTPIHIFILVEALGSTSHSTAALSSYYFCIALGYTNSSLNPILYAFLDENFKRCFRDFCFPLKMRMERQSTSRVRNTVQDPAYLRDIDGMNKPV
- ASSAY_INFO: cell-based
- CONDITIONS: KOR cAMP Agonist Potency ± SEM
MEASURED_PARAMETER: EC50

COMPOUND	RESULT
O=C1CCC2C3Cc4ccc(O)c5c4[C@@]2(CCN3CC=Cc2ccccc2)[C@H]1O5 (stereo partly drawn)	> 10 µM
O=C1CCC2C3Cc4ccc(O)c5c4C2(CCN3CCc2cccc([N+](=O)[O-])c2)C1O5 (stereo not drawn)	> 10 µM
O=C1CCC2C3Cc4ccc(O)c5c4[C@@]2(CCN3CC2Cc3ccccc3C2)[C@H]1O5 (stereo partly drawn)	> 10 µM

* * *

- SYSTEM_NAME: human μ-opioid receptor β-arrestin-2 (Homo sapiens, UniProt P35372)
- Construct: enzyme fragment for EFC (β-galactosidase ProLink fragment, by own knowledge of the PathHunter system)
- Sequence (P35372 whole entry, the tested form may be a part): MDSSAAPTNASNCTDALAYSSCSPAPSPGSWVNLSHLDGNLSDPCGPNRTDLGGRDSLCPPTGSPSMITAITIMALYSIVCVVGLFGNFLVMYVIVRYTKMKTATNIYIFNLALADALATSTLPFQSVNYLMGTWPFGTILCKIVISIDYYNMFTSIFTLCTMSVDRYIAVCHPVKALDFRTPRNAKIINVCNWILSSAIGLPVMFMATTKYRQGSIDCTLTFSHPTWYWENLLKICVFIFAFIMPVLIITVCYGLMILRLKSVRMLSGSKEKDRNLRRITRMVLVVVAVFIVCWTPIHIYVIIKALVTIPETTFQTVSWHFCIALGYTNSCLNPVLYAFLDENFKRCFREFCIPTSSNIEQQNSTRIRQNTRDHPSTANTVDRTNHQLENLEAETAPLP
- ASSAY_INFO: cell-based
pEC50: −log10 of the molar value.

COMPOUND	pEC50
O=C1CCC2C3Cc4ccc(O)c5c4[C@@]2(CCN3CCc2ccccc2F)[C@H]1O5 (stereo partly shown) [Compound 2g]	8.77
O=C1CCC2C3Cc4ccc(O)c5c4[C@@]2(CCN3CC=Cc2ccccc2)[C@H]1O5 (stereo partly shown) [Compound 1c]	6.23
O=C1CCC2C3Cc4ccc(O)c5c4[C@@]2(CCN3CCc2ccc(Cl)cc2)[C@H]1O5 (stereo partly shown) [Compound 2i]	8.61
O=C1CCC2C3Cc4ccc(O)c5c4[C@@]2(CCN3CCc2ccc(F)cc2)[C@H]1O5 (stereo partly shown) [Compound 2e]	7.81
O=C1CCC2C3Cc4ccc(O)c5c4C2(CCN3CCc2cccc([N+](=O)[O-])c2)C1O5 (stereo not shown) [Compound 2b]	6.94
COc1ccc(CCN2CC[C@]34c5c6ccc(O)c5O[C@H]3C(=O)CCC4C2C6)cc1 (stereo partly shown) [Compound 2d]	7.95
O=C1CCC2C3Cc4ccc(O)c5c4[C@@]2(CCN3CCc2cccc(F)c2)[C@H]1O5 (stereo partly shown) [Compound 2f]	8.21

* * *

- SYSTEM_NAME: μ-opioid receptor (MOR) (Rattus norvegicus)
- Construct: Frozen whole rat brains excluding cerebellum were thawed on ice
- Sequence (P33535 whole entry): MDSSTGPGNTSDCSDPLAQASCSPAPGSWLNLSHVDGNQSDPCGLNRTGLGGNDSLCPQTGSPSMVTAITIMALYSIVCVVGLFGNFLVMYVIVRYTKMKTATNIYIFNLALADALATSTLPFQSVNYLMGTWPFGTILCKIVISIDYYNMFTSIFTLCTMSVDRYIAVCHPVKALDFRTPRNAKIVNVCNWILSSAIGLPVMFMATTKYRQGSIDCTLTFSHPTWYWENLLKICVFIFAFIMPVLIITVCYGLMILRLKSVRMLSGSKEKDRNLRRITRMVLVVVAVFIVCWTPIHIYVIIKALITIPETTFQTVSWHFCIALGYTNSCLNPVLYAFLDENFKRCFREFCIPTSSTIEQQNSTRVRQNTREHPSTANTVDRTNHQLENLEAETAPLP
- ASSAY_INFO: Opioid receptor binding, μ sites ([3H]DAMGO), rat brain homogenate
pKi: −log10 of the molar value.

MOLECULE	pKi
Cc1ccc(CCN2CC[C@]34c5c6ccc(O)c5O[C@H]3C(=O)CCC4C2C6)cc1 (stereo partly drawn)	9.07
COc1ccc(CCN2CC[C@]34c5c6ccc(O)c5O[C@H]3C(=O)CCC4C2C6)cc1 (stereo partly drawn)	9.17
N#CCN1CC[C@]23c4c5ccc(O)c4O[C@H]2C(=O)CCC3C1C5 (stereo partly drawn)	8.35
N#CCCCN1CCC23c4c5ccc(O)c4OC2C(=O)CCC3C1C5 (stereo not drawn)	8.37
O=C1CCC2C3Cc4ccc(O)c5c4[C@@]2(CCN3CC2Cc3ccccc3C2)[C@H]1O5 (stereo partly drawn)	7.40
O=C1CCC2C3Cc4ccc(O)c5c4[C@@]2(CCN3CCc2ccccc2F)[C@H]1O5 (stereo partly drawn)	9.49
O=C1CCC2C3Cc4ccc(O)c5c4C2(CCN3CCc2cccc([N+](=O)[O-])c2)C1O5 (stereo not drawn)	8.23
O=C1CCC2C3Cc4ccc(O)c5c4[C@@]2(CCN3CCc2ccc(F)cc2)[C@H]1O5 (stereo partly drawn)	9.06
O=C1CCC2C3Cc4ccc(O)c5c4[C@@]2(CCN3CCc2ccc([N+](=O)[O-])cc2)[C@H]1O5 (stereo partly drawn)	9.28
O=C1CCC2C3Cc4ccc(O)c5c4[C@@]2(CCN3CCc2ccc(C(F)(F)F)cc2)[C@H]1O5 (stereo partly drawn)	8.57
O=C1CCC2C3Cc4ccc(O)c5c4[C@@]2(CCN3CCc2ccc(Cl)cc2)[C@H]1O5 (stereo partly drawn)	8.96
O=C1CCC2C3Cc4ccc(O)c5c4[C@@]2(CCN3CC=Cc2ccccc2)[C@H]1O5 (stereo partly drawn)	7.04

* * *

- SYSTEM_NAME: human δ-receptor (OPRMD1) (Homo sapiens)
- Construct: host or cells: HitHunter CHO-K1 cells
- Sequence (P41143 whole entry): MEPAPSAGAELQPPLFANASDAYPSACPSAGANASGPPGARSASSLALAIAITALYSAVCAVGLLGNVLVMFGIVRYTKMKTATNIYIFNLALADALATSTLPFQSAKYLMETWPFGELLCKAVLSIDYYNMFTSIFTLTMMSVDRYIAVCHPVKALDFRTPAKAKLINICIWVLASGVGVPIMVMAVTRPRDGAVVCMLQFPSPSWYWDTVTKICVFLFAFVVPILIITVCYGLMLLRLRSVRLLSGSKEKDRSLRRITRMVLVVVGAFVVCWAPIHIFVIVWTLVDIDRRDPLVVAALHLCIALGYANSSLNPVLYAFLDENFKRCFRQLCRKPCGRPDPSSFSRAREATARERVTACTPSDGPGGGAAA
- ASSAY_INFO: cell-based
- Assay type: cell-based
- CONDITIONS: CHO-K1, read-out: DOR cAMP % Efficacy
Emax values, listed per item

COMPOUND	Emax
O=C1CCC2C3Cc4ccc(O)c5c4[C@@]2(CCN3CCc2ccccc2F)[C@H]1O5 (stereo partly drawn)	93.8%
O=C1CCC2C3Cc4ccc(O)c5c4[C@@]2(CCN3CCc2cccc(F)c2)[C@H]1O5 (stereo partly drawn)	96.9%
O=C1CCC2C3Cc4ccc(O)c5c4[C@@]2(CCN3CCc2ccc(C(F)(F)F)cc2)[C@H]1O5 (stereo partly drawn)	94.3%
O=C(O)C(=O)O.O=C1CCC2[C@H]3Cc4ccc(O)c5c4[C@@]2(CCN3CCc2ccc(Br)cc2)[C@H]1O5 (stereo partly drawn)	96%
COc1ccc(CCN2CC[C@]34c5c6ccc(O)c5O[C@H]3C(=O)CCC4C2C6)cc1 (stereo partly drawn)	97.5%
O=C1CCC2C3Cc4ccc(O)c5c4[C@@]2(CCN3CCc2ccc(Cl)cc2)[C@H]1O5 (stereo partly drawn)	84.8%

* * *

- SYSTEM_NAME: human δ-receptor (OPRMD1) (Homo sapiens)
- Construct: host or cells: HitHunter CHO-K1 cells
- ASSAY_INFO: cell-based
- Format: cell-based
- CONDITIONS: CHO-K1, read-out: DOR cAMP % Efficacy
Property: Emax; scope: individual compounds

COMPOUND	SYSTEM_NAME	Emax
O=C1CCC2C3Cc4ccc(O)c5c4[C@@]2(CCN3CC2Cc3ccccc3C2)[C@H]1O5 (some centres unmarked)	human δ-receptor (OPRMD1) (Homo sapiens)	94.4%
Cc1ccc(CCN2CC[C@]34c5c6ccc(O)c5O[C@H]3C(=O)CCC4C2C6)cc1 (some centres unmarked)	human δ-receptor (OPRMD1) (Homo sapiens)	95%
N#CCN1CC[C@]23c4c5ccc(O)c4O[C@H]2C(=O)CCC3C1C5 (some centres unmarked)	human δ-receptor (OPRMD1) (Homo sapiens)	77%
O=C1CCC2C3Cc4ccc(O)c5c4[C@@]2(CCN3CCc2ccc(F)cc2)[C@H]1O5 (some centres unmarked)	human δ-receptor (OPRMD1) (Homo sapiens)	98.1%
O=C1CCC2C3Cc4ccc(O)c5c4[C@@]2(CCN3CCc2ccc([N+](=O)[O-])cc2)[C@H]1O5 (some centres unmarked)	human δ-receptor (OPRMD1) (Homo sapiens)	96%

FYI, the data here is from paper PMC7321161.
